Entry source: patent US20030017170A1

SUBJECT_OF_TEST: E-selectin:IgG chimera (UniProt P16581 22-301)
Sequence (P16581 22-301, change not shown): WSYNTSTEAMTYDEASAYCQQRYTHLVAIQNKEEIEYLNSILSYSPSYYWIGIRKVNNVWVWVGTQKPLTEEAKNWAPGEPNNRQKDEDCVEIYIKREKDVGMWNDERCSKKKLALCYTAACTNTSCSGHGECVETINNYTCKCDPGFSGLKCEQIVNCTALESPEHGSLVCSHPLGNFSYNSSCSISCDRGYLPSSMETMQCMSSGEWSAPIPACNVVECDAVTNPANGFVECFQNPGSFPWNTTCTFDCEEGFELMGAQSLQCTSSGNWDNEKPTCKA
ASSAY_PROTOCOL: competition ELISA: inhibition of sLe^x-PAA-biotin binding to coated E-selectin:IgG
Positions of bridges follow the written chain, without caps; N, C: chain ends. No end group written: not given here.
RESULT_TYPE: IC50 (µM)

- CIELLQARC (disulfide 1-9 (inferred), Synthetic peptide cyclised by a disulfide bond; also called cyclic heptapeptide) [synthetic cyclic CIELLQARC (SEQ ID NO:13) peptide]: 100
